- TGT: Human Cbl-b (residues 40-426) (Homo sapiens (Human), UniProt Q13191)
- Sequence (Q13191 40-426): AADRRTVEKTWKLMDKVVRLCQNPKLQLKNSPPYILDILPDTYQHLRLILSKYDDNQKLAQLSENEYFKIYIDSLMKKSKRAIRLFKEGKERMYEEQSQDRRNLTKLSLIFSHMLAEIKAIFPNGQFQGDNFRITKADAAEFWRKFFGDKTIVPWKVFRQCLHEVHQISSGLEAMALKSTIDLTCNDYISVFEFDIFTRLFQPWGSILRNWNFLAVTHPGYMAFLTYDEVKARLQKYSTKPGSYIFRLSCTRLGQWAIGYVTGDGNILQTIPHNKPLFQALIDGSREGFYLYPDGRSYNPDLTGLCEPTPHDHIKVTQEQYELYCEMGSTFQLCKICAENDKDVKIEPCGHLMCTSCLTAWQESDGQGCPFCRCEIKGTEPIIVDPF
QUANTITY MEASURED: pKd
Note on units: pKd is unitless, being -log10 of a concentration expressed in mol/L.

Examples from the recorded data:
COMPOUND: Cn1cnnc1[C@H](C[C@H]1COCCO1)c1cccc(N2Cc3c(cc(CNC4(C)CCC4)cc3C(F)(F)F)C2=O)c1
pKd: 6.28

COMPOUND: Cn1cnnc1[C@]1(c2cccc(N3Cc4c(cc(CNC5(C)CCC5)cc4C(F)(F)F)C3=O)c2)C[C@@](O)(C(F)F)C1
pKd: 8.03

COMPOUND: Cn1cnnc1C(F)(c1cccc(N2Cc3c(cc(CNC4(C)CCC4)cc3C(F)(F)F)C2=O)c1)C1(F)COC1 (stereo in doubt) [Compound 403]
pKd: 5.60

COMPOUND: Cn1cnnc1C1(c2cc(OC3CCCC3)nc(N3Cc4c(cc(CNC5(C)CCC5)cc4C(F)(F)F)C3=O)c2)CC2(COC2)C1
pKd: 7.92

COMPOUND: Cn1cnnc1[C@]1(c2cccc(N3Cc4c(cc(CNC5(C)CCC5)cc4C(F)(F)F)C3=O)c2)C[C@@H](OCF)C1
pKd: 7.32

Please examine the following record next.
Task item: Please give the measured pKd for this compound: CO[C@H]1C[C@](c2cc(OC3CCCC3)cc(N3Cc4c(cc(CNC5(C)CCC5)cc4C(F)(F)F)C3=O)c2)(c2nncn2C)C1
Reply: 6.96

====

- TGT: Human Cbl-b (residues 40-426) (Homo sapiens (Human), UniProt Q13191)
QUANTITY MEASURED: pKd
As a rule, pKd stands for the negative log10 of the concentration, concentration in M.

MOLECULE: Cn1cnnc1[C@@](C)(O)c1cccc(N2Cc3c(cc(CNC4(C)CCC4)cc3C(F)(F)F)C2=O)c1 [Compound 306]
pKd: 6.85
//
MOLECULE: CO[C@H]1C[C@](c2cccc(N3Cc4c(cc(CNC56CC(C5)C6)cc4C(F)(F)F)C3=O)c2)(c2nncn2C)C1 [Compound 485]
pKd: 8.13

Task item: What measured pKd goes with Cn1cnnc1C1(c2cccc(N3Cc4c(cc(CNC5(C)CCC5)cc4C(F)(F)F)C3=O)c2)C[S+]([O-])C1 (stereo not shown) [Compound 331] ?
Reply: 7.82

Task item: Could you do the same for CC(=O)[C@H]1C[C@](c2cccc(N3Cc4c(cc(CNC5(C)CCC5)cc4C(F)(F)F)C3=O)c2)(c2nncn2C)C1 [Compound 347] , please?
Reply: 8.52

Task item: What would you report for CO[C@H]1C[C@](c2cccc(N3Cc4c(cc(CNCC5(CO)CCC5)cc4C(F)(F)F)C3=O)c2)(c2nncn2C)C1 [Compound 489] ?
Reply: 8.21

Task item: Entry to check: Cn1cnnc1[C@]1(c2cccc(N3Cc4c(Cl)cc(CNC5(C)CCC5)cc4C3=O)c2)C[C@@H](Cl)C1 [Compound 451]
Reply: 9.60

Task item: Moving on to Cn1cnnc1C1(c2cccc(N3Cc4c(cc(CNC5(C)CCC5)cc4C(F)(F)F)C3=O)c2)CC2(COC2)C1 [Compound 65]
Reply: 8.43

Task item: Subsequent entry: Cn1cnnc1C1(c2cccc(N3Cc4c(cc(CNC5(C)CCC5)cc4C(F)(F)F)C3=O)c2)CN(C2COC2)C1 [Compound 111]
Reply: 5.44

====

Quick reference for pIC50 among some compounds
- TGT: Cbl-b (Homo sapiens (Human))
- ASSAY INFO: Cbl-b LCK Ub TR-FRET assay (Cbl-b Lck HTRF)
- Assay type: biochemical
- CONDITION CONTEXT: Cbl-b LCK Ub TR-FRET
A value of pIC50 is the negative decimal logarithm of a concentration given in moles per litre.

Some compounds with known pIC50 results, for comparison:
COMPOUND: Cn1cnnc1[C@H](CC1CCC1)c1cccc(N2Cc3c(cc(CNC4(C)CCC4)cc3C(F)(F)F)C2=O)c1
pIC50: 5.77
//
COMPOUND: C[C@H](CC#N)Nc1cc(C2(c3nncn3C)CC3(COC3)C2)cc(N2Cc3c(cc(CNC4(C)CCC4)cc3C(F)(F)F)C2=O)n1
pIC50: 7.89
//
COMPOUND: Cn1cnnc1[C@]1(c2cc(NC3CCCCC3)nc(N3Cc4c(cc(CNC5(C)CCC5)cc4C(F)(F)F)C3=O)c2)C[C@@H](C)C1
pIC50: 7.51
//
COMPOUND: CO[C@H]1C[C@@](c2cccc(N3Cc4c(cc(CNC5(C)CCC5)cc4C(F)F)C3=O)c2)(c2nncn2C)C1
pIC50: 7.60
//
COMPOUND: CCOC1CC([C@@H](c2cccc(N3Cc4c(cc(CNC5(C)CCC5)cc4C(F)(F)F)C3=O)c2)c2nncn2C)C1 (single isomer, unassigned) [Compound 267]
pIC50: 7.43
//
COMPOUND: Cn1cnnc1[C@]1(c2cccc(N3Cc4c(cc(CNC5(C)CCC5)cc4C(F)(F)F)C3=O)c2)C[C@](C)(F)C1
pIC50: 7.77
//
COMPOUND: Cn1cnnc1C(c1cccc(N2Cc3c(cc(CNC4(C)CCC4)cc3C(F)(F)F)C2=O)c1)[C@H]1C[C@H](CC#N)C1 (single isomer, unassigned) [Compound 363]
pIC50: 7.21
//
COMPOUND: C[C@H]1CCCN(Cc2cc3c(c(C(F)(F)F)c2)CN(c2cccc(C4(c5nncn5C)CC5(COC5)C4)c2)C3=O)C1 (single isomer, unassigned)
pIC50: 7.60

Task item: What does the data say about its pIC50? Entry: Cn1cnnc1[C@]1(c2cccc(N3Cc4c(cc(CNC5(C)CCC5)cc4C(F)(F)F)C3=O)c2)C[C@H](S(C)(=O)=O)C1
Reply: 4.80

Task item: Now try CO[C@H](c1cccc(N2Cc3c(cc(CNC4(C)CCC4)cc3C(F)(F)F)C2=O)c1)c1nncn1C (single isomer, unassigned) .
Reply: 6.74

Task item: Next compound up: CO[C@@H](c1cccc(N2Cc3c(cc(CNC4(C)CCC4)cc3C(F)(F)F)C2=O)c1)c1nncn1C (single isomer, unassigned)
Reply: 6.33

Task item: Next compound: Cn1cnnc1[C@]1(c2cccc(N3Cc4c(cc(CNC5(C)CCC5)cc4C(F)(F)F)C3=O)c2)C[C@@](C)(F)C1
Reply: 7.82

====

Catalogue of molecules with associated log10 of Fold of selectivity
- TGT: Human Cbl-b (residues 40-426) (Homo sapiens (Human), UniProt Q13191)
- ASSAY INFO: Cbl-b SPR assay
- Format: binding
- CONDITION CONTEXT: C-cbl SPR Kd vs Cbl-b SPR Kd
Please keep in mind that the values are log10 of Fold of selectivity expressed in ×.

Solved cases below.
MOLECULE: Cn1cnnc1[C@]1(c2cccc(N3Cc4c(cc(CNC5(C)CCC5)cc4C(F)(F)F)C3=O)c2)C[C@@H]([S@+](C)[O-])C1 (single isomer, unassigned)
VALUE: -0.12

MOLECULE: Cn1cnnc1C1(c2cccc(N3Cc4c(cc(CNC5(C)CCC5)cc4C(F)(F)F)C3=O)c2)CC2(CCC2)C1
VALUE: 0.98

MOLECULE: CO[C@H]1C[C@@](O)(C(c2cccc(N3Cc4c(cc(CNC5(C)CCC5)cc4C(F)(F)F)C3=O)c2)c2nncn2C)C1 (single isomer, unassigned)
VALUE: 0.86

MOLECULE: Cn1cnnc1[C@H](c1cccc(N2Cc3c(cc(CNC4(C)CCC4)cc3C(F)(F)F)C2=O)c1)[C@H]1C[C@H](C)C1 (single isomer, unassigned)
VALUE: 1.20

MOLECULE: Cn1cnnc1[C@H](c1cccc(N2Cc3c(cc(CNC4(C)CCC4)cc3C(F)(F)F)C2=O)c1)C1CC(F)C1 (single isomer, unassigned) [Compound 128]
VALUE: 1.11

MOLECULE: CCc1cc(N2Cc3c(cc(CNC4(C)CCC4)cc3C(F)(F)F)C2=O)cc([C@]2(c3nncn3C)C[C@@H](OC)C2)c1
VALUE: 0.46

MOLECULE: Cn1cnnc1C1(c2cc(C3CC3)nc(N3Cc4c(cc(CNC5(C)CCC5)cc4C(F)(F)F)C3=O)c2)CC(F)(F)C1
VALUE: 0.11

MOLECULE: CC[C@@](F)(c1cccc(N2Cc3c(cc(CNC4(C)CCC4)cc3C(F)(F)F)C2=O)c1)c1nncn1C (single isomer, unassigned)
VALUE: 0.38

Task item: Item Cn1cnnc1C(c1cccc(N2Cc3c(cc(CNC4(C)CCC4)cc3C(F)(F)F)C2=O)c1)[C@H]1C[C@H](CC#N)C1 (single isomer, unassigned) [Compound 363] has what recorded log10 of Fold of selectivity?
Reply: 0.56

Task item: // query: CC(=O)N(C)[C@H](c1cccc(N2Cc3c(cc(CNC4(C)CCC4)cc3C(F)(F)F)C2=O)c1)c1nncn1C (single isomer, unassigned)
Reply: 1.23

Task item: Could you do the same for CC[C@@H](c1cccc(N2Cc3c(Cl)cc(CNC4(C)CCC4)cc3C2=O)c1)c1nncn1C (single isomer, unassigned) , please?
Reply: 0.32

Task item: Request: COC[C@H]1CC1(c1cccc(N2Cc3c(cc(CNC4(C)CCC4)cc3C(F)(F)F)C2=O)c1)c1nncn1C (single isomer, unassigned)
Reply: 0.76

Task item: Cn1cnnc1C1(c2cccc(N3Cc4c(cc(CNC5(C)CCC5)cc4C(F)(F)F)C3=O)c2)CN(CC(F)(F)F)C1 , same question.
Reply: 0.86

Task item: Next record, please: Cn1cnnc1[C@]1(c2cccc(N3Cc4c(cc(CNC5(C)CCC5)cc4C(F)(F)F)C3=O)c2)CCC(F)(F)C1 (single isomer, unassigned)
Reply: 0.83

Task item: Another molecule to look at: CO[C@H]1C[C@](c2cccc(N3Cc4c(cc(CNCC(C)(C)F)cc4C(F)(F)F)C3=O)c2)(c2nncn2C)C1
Reply: 1.26

Task item: Same again, this time with Cn1cnnc1[C@]1(c2cccc(N3Cc4c(cc(CNC5(C)CCC5)cc4C(F)(F)F)C3=O)c2)C[C@@](C)(O)C1
Reply: 0.86

Task item: Now try Cn1cnnc1[C@]1(c2cccc(N3Cc4c(cc(CNC5(C)CCC5)cc4C(F)(F)F)C3=O)c2)C[C@H](Cl)C1 .
Reply: 0.75

Task item: Moving on to CO[C@H]1C[C@](c2cc(N[C@@H](C)CC#N)cc(N3Cc4c(cc(CNC5(C)CCC5)cc4C(F)(F)F)C3=O)c2)(c2nncn2C)C1 (single isomer, unassigned)
Reply: 0.75
